Source of measurements: patent US20220388964A1

I'd be grateful if you could share measured IC50 for these entries.
- study-target: UniProt:Q9P2K8
- protocol-text: TR-FRET biochemical assay for inhibition of GCN2 (Example 106, for Example 1-4BB)
- assay-context: Table 9

Exam item: Name the reported IC50 value associated with the compound Cc1ccc(S(=O)(=O)Nc2ccc(F)c(-c3ccc4c(C(=O)Nc5cnoc5)n[nH]c4c3F)c2F)c(C)n1
Marked response: < 500 nM

Exam item: Name the reported IC50 value associated with the compound COc1ncccc1S(=O)(=O)Nc1ccc(F)c(-c2ccc3c(C(N)=O)n[nH]c3c2F)c1F
Marked response: 500 to 2500 nM

Exam item: Name the reported IC50 value associated with the compound COc1ncc(Cl)cc1S(=O)(=O)Nc1ccc(F)c(-c2ccc3c(-c4cnn[nH]4)n[nH]c3c2F)c1F
Marked response: < 500 nM

Exam item: Name the reported IC50 value associated with the compound O=C(Nc1cnn(CCO)c1)c1n[nH]c2c(F)c(-c3c(F)ccc(NS(=O)(=O)c4cc(F)cc5c4CCC5O)c3F)ccc12 (stereo not shown)
Marked response: < 500 nM

###

I'd be grateful if you could share measured IC50 for these entries.
- study-target: GCN2 (Homo sapiens, UniProt Q9P2K8)
- Sequence (Q9P2K8 whole entry): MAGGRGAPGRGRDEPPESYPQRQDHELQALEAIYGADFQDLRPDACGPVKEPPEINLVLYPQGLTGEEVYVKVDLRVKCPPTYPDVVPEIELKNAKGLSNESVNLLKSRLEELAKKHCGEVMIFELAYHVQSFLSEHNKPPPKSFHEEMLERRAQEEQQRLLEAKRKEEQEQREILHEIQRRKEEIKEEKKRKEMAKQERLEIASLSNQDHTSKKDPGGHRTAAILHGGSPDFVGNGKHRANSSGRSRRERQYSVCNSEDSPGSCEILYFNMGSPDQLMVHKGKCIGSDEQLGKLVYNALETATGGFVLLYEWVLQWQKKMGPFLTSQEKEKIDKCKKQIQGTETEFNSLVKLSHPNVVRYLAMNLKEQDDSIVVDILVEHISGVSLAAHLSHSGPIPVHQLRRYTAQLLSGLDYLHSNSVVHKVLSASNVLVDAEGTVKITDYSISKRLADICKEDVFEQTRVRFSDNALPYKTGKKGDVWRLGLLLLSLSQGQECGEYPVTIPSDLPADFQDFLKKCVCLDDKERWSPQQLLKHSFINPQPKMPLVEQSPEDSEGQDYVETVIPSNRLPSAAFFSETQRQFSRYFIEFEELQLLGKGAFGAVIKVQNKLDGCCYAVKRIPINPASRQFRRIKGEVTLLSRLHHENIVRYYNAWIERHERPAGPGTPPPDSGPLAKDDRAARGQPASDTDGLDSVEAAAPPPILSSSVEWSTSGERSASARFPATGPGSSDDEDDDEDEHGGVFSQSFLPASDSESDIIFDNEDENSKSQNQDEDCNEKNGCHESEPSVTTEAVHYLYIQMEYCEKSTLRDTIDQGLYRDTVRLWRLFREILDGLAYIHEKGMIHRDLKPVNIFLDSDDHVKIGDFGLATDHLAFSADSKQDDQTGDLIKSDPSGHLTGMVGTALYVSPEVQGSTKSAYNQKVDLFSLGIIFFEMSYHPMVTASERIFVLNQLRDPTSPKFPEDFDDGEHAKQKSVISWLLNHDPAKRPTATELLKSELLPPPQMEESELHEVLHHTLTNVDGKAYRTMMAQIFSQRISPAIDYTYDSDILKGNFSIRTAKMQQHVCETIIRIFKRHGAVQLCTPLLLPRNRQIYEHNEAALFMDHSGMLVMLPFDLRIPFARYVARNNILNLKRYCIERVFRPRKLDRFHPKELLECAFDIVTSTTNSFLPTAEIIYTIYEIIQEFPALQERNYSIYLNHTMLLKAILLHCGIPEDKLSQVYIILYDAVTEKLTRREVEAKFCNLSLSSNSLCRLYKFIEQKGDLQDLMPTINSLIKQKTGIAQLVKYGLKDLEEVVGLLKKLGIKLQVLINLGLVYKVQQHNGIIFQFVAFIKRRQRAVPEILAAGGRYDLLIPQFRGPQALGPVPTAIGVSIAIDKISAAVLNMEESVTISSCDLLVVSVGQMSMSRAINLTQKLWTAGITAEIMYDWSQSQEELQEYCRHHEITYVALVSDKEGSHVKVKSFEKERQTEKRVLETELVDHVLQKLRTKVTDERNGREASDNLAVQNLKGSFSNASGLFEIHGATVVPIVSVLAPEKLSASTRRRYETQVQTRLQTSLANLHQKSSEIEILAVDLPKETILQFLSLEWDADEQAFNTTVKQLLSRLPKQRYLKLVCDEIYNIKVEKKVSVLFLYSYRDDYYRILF
- protocol-text: TR-FRET biochemical assay for inhibition of GCN2 (Example 106, for Example 1-4BB)
- assay-context: Table 9

Exam item: Name the reported IC50 value associated with the compound CN(C)CCCNC(=O)c1n[nH]c2c(F)c(-c3c(F)ccc(NS(=O)(=O)c4cc(F)cc(CO)c4F)c3F)ccc12 [Example 4P]
Marked response: < 500 nM

Exam item: Name the reported IC50 value associated with the compound COc1ncc(F)cc1S(=O)(=O)Nc1nccc(-c2ccc3c(-c4ncc[nH]4)n[nH]c3c2F)c1C#N [Example 31]
Marked response: 500 to 2500 nM

Exam item: Name the reported IC50 value associated with the compound Cc1ccc(F)cc1S(=O)(=O)Nc1ncc(F)c(-c2ccc3c(-c4ncc[nH]4)n[nH]c3c2F)c1F [Example 30]
Marked response: < 500 nM

Exam item: Name the reported IC50 value associated with the compound COc1ncc(F)cc1S(=O)(=O)Nc1nccc(-c2ccc3c(C(N)=O)n[nH]c3c2F)c1F [Example 3Q]
Marked response: 500 to 2500 nM

Exam item: Name the reported IC50 value associated with the compound COc1ncc(F)cc1S(=O)(=O)Nc1ccc(C#N)c(-c2ccc3c(C(N)=O)n[nH]c3c2F)c1F [Example 3BR]
Marked response: 500 to 2500 nM

Exam item: Name the reported IC50 value associated with the compound COc1ncc(F)cc1S(=O)(=O)Nc1ccc(F)c(-c2ccc3c(-c4nc(C(O)CO)c[nH]4)n[nH]c3c2F)c1F (stereo not drawn) [Example 21]
Marked response: < 500 nM

Exam item: Name the reported IC50 value associated with the compound COc1ncc(F)cc1S(=O)(=O)Nc1cccc(-c2ccc3c(C(=O)NC[C@H](O)CO)n[nH]c3c2F)c1F [Example 3AY]
Marked response: 500 to 2500 nM

Exam item: Name the reported IC50 value associated with the compound Cc1ccc(F)cc1S(=O)(=O)Nc1ccc(F)c(-c2ncc3c(-c4ncc[nH]4)n[nH]c3c2F)c1F [Example 38]
Marked response: < 500 nM

Exam item: Name the reported IC50 value associated with the compound O=S(=O)(Nc1ccc(F)c(-c2ccc3c(-c4ccccc4)n[nH]c3c2)c1F)c1cc(F)ccc1F [Example 10]
Marked response: 2500 to 10000 nM

Exam item: Name the reported IC50 value associated with the compound COc1ncc(F)cc1S(=O)(=O)Nc1ccc(F)c(-c2ccc3c(C(=O)NCCC(N)=O)n[nH]c3c2F)c1F [Example 3AL]
Marked response: < 500 nM

Exam item: Name the reported IC50 value associated with the compound COc1ncc(C#N)cc1S(=O)(=O)Nc1ccc(F)c(-c2ccc3c(C(N)=O)n[nH]c3c2F)c1F [Example 3CY]
Marked response: 500 to 2500 nM

Exam item: Name the reported IC50 value associated with the compound COc1ncc(Cl)cc1S(=O)(=O)Nc1cccc(-c2cc3[nH]nc(C(N)=O)c3cn2)c1F [Example 3BD]
Marked response: < 500 nM

Exam item: Name the reported IC50 value associated with the compound COc1ncc(F)cc1S(=O)(=O)Nc1ccc(F)c(-c2ccc3c(C(=O)N[C@@H]4CCN(C)C4)n[nH]c3c2F)c1F [Example 3AB]
Marked response: < 500 nM

Exam item: Name the reported IC50 value associated with the compound COc1ncc(F)cc1S(=O)(=O)Nc1cccc(-c2ccc3c(-c4ncc[nH]4)n[nH]c3c2F)c1F [Example 3V]
Marked response: < 500 nM

Exam item: Name the reported IC50 value associated with the compound COc1cccc(-c2n[nH]c3c(F)c(-c4c(F)ccc(NS(=O)(=O)c5cc(F)cnc5C)c4F)ccc23)n1 [Example 14]
Marked response: 500 to 2500 nM
